- assay.protocol: Tmax in Sprague-Dawley rat at 25 mg/kg, po by LC-MS analysis
- Assay type: ADME, organism-based
- reported.conditions: in vivo
measured.quantity: Tmax (h)

1. CC(C)N(CCc1c[nH]c2ccccc12)Cc1ccc(NCCCCCNC(=O)/C=C/c2cccnc2)cc1	2

---

- assay.protocol: Half life in Sprague-Dawley rat at 5 mg/kg, iv by LC-MS analysis
- Format: ADME, organism-based
- reported.conditions: in vivo
measured.quantity: half-life (h)

1. CC(C)N(CCc1c[nH]c2ccccc12)Cc1ccc(NCCCCCNC(=O)/C=C/c2cccnc2)cc1	1.55

---

- assay.protocol: Cmax in Sprague-Dawley rat at 5 mg/kg, iv measured up to 24 hrs by LC-MS analysis
- Type: ADME, organism-based
- Design: dose 5 mg/kg, route intravenous
- reported.conditions: in vivo
measured.quantity: Cmax (ng/mL)

1. CC(C)N(CCc1c[nH]c2ccccc12)Cc1ccc(NCCCCCNC(=O)/C=C/c2cccnc2)cc1	3790

---

- assay.protocol: Oral bioavailability in Sprague-Dawley rat at 25 mg/kg measured up to 24 hrs by LC-MS analysis
- Type: ADME, organism-based
- reported.conditions: in vivo
measured.quantity: bioavailability (%)

1. CC(C)N(CCc1c[nH]c2ccccc12)Cc1ccc(NCCCCCNC(=O)/C=C/c2cccnc2)cc1	4.4

---

- assay.protocol: Cmax in Sprague-Dawley rat at 25 mg/kg, po measured up to 24 hrs by LC-MS analysis
- Format: ADME, organism-based
- Design: dose 25 mg/kg, route oral
- reported.conditions: in vivo
measured.quantity: Cmax (ng/mL)

1. CC(C)N(CCc1c[nH]c2ccccc12)Cc1ccc(NCCCCCNC(=O)/C=C/c2cccnc2)cc1	108

---

- target.or.system: UniProt P43490
- assay.protocol: Inhibition of recombinant NAMPT (unknown origin) using nicotinamide as substrate measured every 5 mins for 30 mins in presence of recombinant NMNAT1
pIC50: −log10 of the molar value.
The threshold is inclusive: pIC50 of exactly 7 counts as true; values below receive false.

1) O=C(/C=C/c1cccnc1)NCCCc1ccc(CNCCc2c[nH]c3ccccc23)cc1	false
2) CC(C)N(CCc1ccc(C(F)(F)F)cc1)Cc1ccc(CCCCCNC(=O)/C=C/c2cccnc2)cc1	false
3) O=C(/C=C/c1cccnc1)NCCCc1ccc(CN(CCc2c[nH]c3ccccc23)Cc2ccccc2)cc1	false
4) CC(C)N(CCc1ccsc1)Cc1ccc(CCCCCNC(=O)/C=C/c2cccnc2)cc1	false
5) CC(C)(C)OC(=O)N(CCc1c[nH]c2ccccc12)Cc1ccc(CCCNC(=O)/C=C/c2cccnc2)cc1	false
6) CC(C)N(CCc1c[nH]c2ccccc12)Cc1ccc(CNC(=O)/C=C/c2cccnc2)cc1	false
7) CC(C)N(CCc1ccccc1)Cc1ccc(CCCCCNC(=O)/C=C/c2cccnc2)cc1	false
8) CCCN(CCc1c[nH]c2ccccc12)Cc1ccc(CCCNC(=O)/C=C/c2cccnc2)cc1	false
9) CC(C)N(CCc1c[nH]c2ccccc12)Cc1ccc(CCCCCCCNC(=O)/C=C/c2cccnc2)cc1	true
10) CCN(CCc1c[nH]c2ccccc12)Cc1ccc(CCCNC(=O)/C=C/c2cccnc2)cc1	false
11) CN(CCc1c[nH]c2ccccc12)Cc1ccc(CCCNC(=O)/C=C/c2cccnc2)cc1	false
12) COc1ccc(CCN(Cc2ccc(CCCCCNC(=O)/C=C/c3cccnc3)cc2)C(C)C)cc1	true
13) CC(C)N(CCc1cccc(C(F)(F)F)c1)Cc1ccc(CCCCCNC(=O)/C=C/c2cccnc2)cc1	false
14) CC(C)N(CCc1c[nH]c2ccccc12)Cc1ccc(NCCCCCNC(=O)/C=C/c2cccnc2)cc1	true
15) CC(C)N(CCc1c[nH]c2ccccc12)Cc1ccc(CCCNC(=O)/C=C/c2cccnc2)cc1	false

---

Listed molecules paired with reported IC50
- target.or.system: Nicotinamide phosphoribosyltransferase (Homo sapiens, UniProt P43490)
- Sequence (P43490 whole entry): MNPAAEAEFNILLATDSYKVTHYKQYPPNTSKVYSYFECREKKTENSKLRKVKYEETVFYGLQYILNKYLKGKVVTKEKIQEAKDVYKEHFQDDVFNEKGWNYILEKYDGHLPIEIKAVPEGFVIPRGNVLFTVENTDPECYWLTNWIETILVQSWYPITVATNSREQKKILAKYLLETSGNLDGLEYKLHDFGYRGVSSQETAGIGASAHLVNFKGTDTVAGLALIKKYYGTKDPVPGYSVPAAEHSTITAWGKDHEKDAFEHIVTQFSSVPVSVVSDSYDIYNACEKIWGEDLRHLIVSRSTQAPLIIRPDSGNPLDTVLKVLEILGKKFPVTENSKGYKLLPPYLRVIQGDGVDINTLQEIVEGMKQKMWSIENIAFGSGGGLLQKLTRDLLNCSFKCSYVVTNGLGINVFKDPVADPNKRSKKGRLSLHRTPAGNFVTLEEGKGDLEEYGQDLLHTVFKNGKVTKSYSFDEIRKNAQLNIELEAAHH
- assay.protocol: Inhibition of recombinant NAMPT (unknown origin) using nicotinamide as substrate measured every 5 mins for 30 mins in presence of recombinant NMNAT1
measured.quantity: IC50 (nM)

1) CC(C)N(Cc1ccccc1)Cc1ccc(CCCCCNC(=O)/C=C/c2cccnc2)cc1	82.5
2) O=C(/C=C/c1cccnc1)NCCCc1ccc(CN(CCO)CCc2c[nH]c3ccccc23)cc1	181
3) Cc1[nH]c2ccccc2c1CCN(Cc1ccc(CCCCCNC(=O)/C=C/c2cccnc2)cc1)C(C)C	120

---

- assay.protocol: AUC (0 to infinity) in Sprague-Dawley rat at 25 mg/kg, po measured up to 24 hrs by LC-MS analysis
- Assay type: ADME, organism-based
- Set-up: dose 25 mg/kg, route oral, time infinity
- reported.conditions: in vivo
measured.quantity: AUC(0-inf) (ng·h/mL)

1. CC(C)N(CCc1c[nH]c2ccccc12)Cc1ccc(NCCCCCNC(=O)/C=C/c2cccnc2)cc1	374

---

- assay.protocol: Plasma clearance in Sprague-Dawley rat at 25 mg/kg, po measured up to 24 hrs by LC-MS analysis
- Format: ADME, organism-based
measured.quantity: CL/F (mL/min/kg)

1) CC(C)N(CCc1c[nH]c2ccccc12)Cc1ccc(NCCCCCNC(=O)/C=C/c2cccnc2)cc1	1140

---

- target.or.system: Nicotinamide phosphoribosyltransferase (Homo sapiens)
- assay.protocol: Inhibition of recombinant NAMPT (unknown origin) using nicotinamide as substrate measured every 5 mins for 30 mins in presence of recombinant NMNAT1
pIC50: −log10 of the molar value.
measured.quantity: pIC50

1. CC(C)N(CCc1c[nH]c2ccccc12)Cc1ccc(CCCCCNC(=O)/C=C/c2cccnc2)cc1	7.17
2. Cc1ccc(CCN(Cc2ccc(CCCCCNC(=O)/C=C/c3cccnc3)cc2)C(C)C)cc1	7.00
3. CC(C)N(CCc1ccc(F)cc1)Cc1ccc(CCCCCNC(=O)/C=C/c2cccnc2)cc1	6.83
